- system.name: histamine H3 -receptor (Cavia porcellus)
- Construct: ileum guinea pig; from tissue; host or cells: guinea pig ileum
- Sequence (Q9JI35 whole entry): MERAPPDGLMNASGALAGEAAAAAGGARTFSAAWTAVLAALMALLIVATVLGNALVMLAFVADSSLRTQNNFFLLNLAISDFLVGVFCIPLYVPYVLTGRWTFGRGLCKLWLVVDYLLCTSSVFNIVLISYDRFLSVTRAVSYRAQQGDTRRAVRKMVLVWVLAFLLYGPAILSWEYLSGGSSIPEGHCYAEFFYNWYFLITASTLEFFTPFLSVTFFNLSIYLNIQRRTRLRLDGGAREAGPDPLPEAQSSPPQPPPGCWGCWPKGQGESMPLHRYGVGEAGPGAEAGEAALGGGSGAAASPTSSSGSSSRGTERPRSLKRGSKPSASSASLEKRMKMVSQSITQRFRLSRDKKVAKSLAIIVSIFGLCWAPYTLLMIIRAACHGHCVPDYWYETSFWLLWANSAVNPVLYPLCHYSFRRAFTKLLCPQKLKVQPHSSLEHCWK
- method.description: Antagonistic activity on the H3-receptor, ileum guinea pig
- Format: cell-based
- applied.conditions: Table 2, antagonistic activity, ileum guinea pig; read-out: pA2 (converted)
readout: Kb (nM)
The response must be a number in nM with no trailing unit.

Study these solved cases before continuing.
> print(dat)
                                     smiles  readout  numeric.readout
1          N=C(NCCSCc1ccccc1)SCCCc1c[nH]cn1       Kb             2.51
2          N=C(NCCCc1c[nH]cn1)NCCSCc1ccccc1       Kb             12.6
3             N=C(NCC1CCCCC1)SCCCc1c[nH]cn1       Kb             1.58
4               N=C(NCCc1c[nH]cn1)Nc1ccccc1       Kb             1580
5  N=C(NCCSC(c1ccccc1)c1ccccc1)SCCc1c[nH]cn1       Kb              251

Kb measured on N=C(NCCc1ccccc1)NCCc1cnc[nH]1 = 501

NC(=NCCCCc1ccccc1)SCCCc1cnc[nH]1 has a reported Kb of 3.98

====

- system.name: histamine H3 -receptor (Cavia porcellus)
- Construct: ileum guinea pig; from tissue; host or cells: guinea pig ileum
- method.description: Antagonistic activity on the H3-receptor, ileum guinea pig
- Type: cell-based
The entries below come with measured Kb values attached.
The answer is to be given in nM; state only the numeric part.

Consider the reported Kb for these molecules:
> print(dat)
                              smiles                               system.name  unit.of.measurement  numeric.readout
1      N=C(NCCc1ccccc1)SCCc1c[nH]cn1  histamine H3 -receptor (Cavia porcellus)                   nM               10
2    N=C(NCCCCc1ccccc1)SCCc1c[nH]cn1  histamine H3 -receptor (Cavia porcellus)                   nM               20
3  NC(=NCc1ccc(Cl)cc1)SCCCc1cnc[nH]1  histamine H3 -receptor (Cavia porcellus)                   nM            0.126

Consider N=C(NCCSCc1ccccc1)SCCc1c[nH]cn1 . Its measured Kb is 39.8

Please fill in: Kb reported for N=C(NCCCc1ccccc1)SCCCc1c[nH]cn1 = 5.01

Please fill in: Kb reported for N=C(NCc1ccccc1)SCCCc1c[nH]cn1 = 1.58
